experiment: Stability in human subcutaneous skin homogenate
readoutLabel: Trep Concentration 60 min (µM)
Quick reminder: number only, in µM, skip the unit.

[[record]]
compound = "CCCCCC(CCC1C(O)CC2Cc3c(cccc3OCC(=O)O)CC21)OC(=O)OCC(=O)O (stereo not shown) [XXXIX]"
readoutlabel = "Trep Concentration 60 min"
resultvalue = 0

[[record]]
compound = "CCCCCC(CCC1C(O)CC2Cc3c(cccc3OCC(=O)O)CC21)OC(=O)OCCOCCOC (stereo not shown) [XLI]"
readoutlabel = "Trep Concentration 60 min"
resultvalue = 0.091

[[record]]
compound = "CCCCCC(CCC1C(O)CC2Cc3c(cccc3OCC(=O)O)CC21)OC(=O)NCC(=O)O (stereo not shown) [XXXVIII]"
readoutlabel = "Trep Concentration 60 min"
resultvalue = 0


Note: attention shifts to another entry.
Supply reported Trep Concentration 60 min belonging to this compound: CCCCCC(O)CCC1C(OC(=O)CCC(=O)O)CC2Cc3c(cccc3OCC(=O)O)CC21 (stereo not shown) [XXII]
0
